system: V-C8 (BRCA2-deficient hamster cells); assay: normalised cell viability (fraction of plate median); higher = more viable cells (less toxic); details: treatment time: 3 days; 5 µM
Where a name gives a salt, the structure may show the parent alone. Over roughly 1,300 compounds, “normalised cell viability” has its median near 1; the lowest 2% begin near 0.14. Shown is part of a subset that was picked to be rich in the lowest values.
Measured normalised cell viability by item
Lab note: record the figure alone, no unit after it.

CCN(C(C)=O)c1cccc(-c2ccnc3c(C#N)cnn23)c1 :: 1.13
CN1C[C@H](C(=O)N[C@]2(C)O[C@@]3(O)[C@@H]4CCCN4C(=O)[C@H](Cc4ccccc4)N3C2=O)C[C@@H]2c3cccc4[nH]cc(c34)C[C@H]21 [Dihydroergotamine tartrate] :: 1.06
CN1CCN(C(=O)OC2c3nccnc3C(=O)N2c2ccc(Cl)cn2)CC1 (stereo unspecified) :: 1.11

Form field: reported normalised cell viability of Oc1cc(Cl)ccc1Oc1ccc(Cl)cc1Cl
0.974

Form field: reported normalised cell viability of C[C@]12CC[C@@H]3c4ccc(OC(=O)N(CCCl)CCCl)cc4CC[C@H]3[C@@H]1CC[C@@H]2O
0.175

Form field: reported normalised cell viability of CCCCCC[C@H]1C(=O)O[C@H](C)[C@H](NC(=O)c2cccc(NC=O)c2O)C(=O)O[C@@H](C)[C@@H]1OC(=O)CC(C)C [Antimycin A]
0.152

Form field: reported normalised cell viability of COc1ccc(CCN2CCC(Nc3nc4ccccc4n3Cc3ccc(F)cc3)CC2)cc1
0.13

Form field: reported normalised cell viability of Fc1ccc(C(OCCN2CCN(CCCc3ccccc3)CC2)c2ccc(F)cc2)cc1
0.159

Form field: reported normalised cell viability of C[C@]12Cc3c[nH]nc3C[C@@H]1CC[C@@H]1[C@@H]2CC[C@@]2(C)[C@H]1CC[C@]2(C)O
1.07

Form field: reported normalised cell viability of C[N+](C)(C)CCCCCCCCCC[N+](C)(C)C [Decamethonium bromide]
1.18

Form field: reported normalised cell viability of S=C(NC1CCCCC1)N1CCC(c2cnc[nH]2)CC1 [Thioperamide maleate]
1

Form field: reported normalised cell viability of C[N+]1(C)CCCC(OC(=O)C(O)(c2ccccc2)c2ccccc2)C1 (stereo unspecified) [Mepenzolate bromide]
0.974

Form field: reported normalised cell viability of C[C@@H]1C[C@@H]([C@H](O)CC2CC(=O)NC(=O)C2)C(=O)[C@@H](C)C1 [Cycloheximide]
0.132

Form field: reported normalised cell viability of C[C@]12C[C@H]3S[C@H]3C[C@@H]1CC[C@@H]1[C@@H]2CC[C@]2(C)[C@@H](O)CC[C@@H]12 [Epitiostanol]
1.04

Form field: reported normalised cell viability of CC1OC(OC2/C=C/C=C/C=C/C=C/CC/C=C/C=C/[C@H](C)[C@@H](O)[C@@H](C)[C@H](C)OC(=O)CC(O)CC(O)CC(O)CCC(O)C(O)C[C@]3(O)CC(O)C(C(=O)O)C(C2)O3)C(O)C(N)C1O (stereo partly specified)
1.06

Form field: reported normalised cell viability of COc1ccc(CN2CCNCC2)c(OC)c1OC [Trimetazidine dihydrochloride]
1.05

Where do these numbers come from? They come from the supplement of paper PMC6609913.
